# study_system: Fibroblast growth factor receptor 3 (Homo sapiens, UniProt P22607)
# Sequence (P22607 whole entry): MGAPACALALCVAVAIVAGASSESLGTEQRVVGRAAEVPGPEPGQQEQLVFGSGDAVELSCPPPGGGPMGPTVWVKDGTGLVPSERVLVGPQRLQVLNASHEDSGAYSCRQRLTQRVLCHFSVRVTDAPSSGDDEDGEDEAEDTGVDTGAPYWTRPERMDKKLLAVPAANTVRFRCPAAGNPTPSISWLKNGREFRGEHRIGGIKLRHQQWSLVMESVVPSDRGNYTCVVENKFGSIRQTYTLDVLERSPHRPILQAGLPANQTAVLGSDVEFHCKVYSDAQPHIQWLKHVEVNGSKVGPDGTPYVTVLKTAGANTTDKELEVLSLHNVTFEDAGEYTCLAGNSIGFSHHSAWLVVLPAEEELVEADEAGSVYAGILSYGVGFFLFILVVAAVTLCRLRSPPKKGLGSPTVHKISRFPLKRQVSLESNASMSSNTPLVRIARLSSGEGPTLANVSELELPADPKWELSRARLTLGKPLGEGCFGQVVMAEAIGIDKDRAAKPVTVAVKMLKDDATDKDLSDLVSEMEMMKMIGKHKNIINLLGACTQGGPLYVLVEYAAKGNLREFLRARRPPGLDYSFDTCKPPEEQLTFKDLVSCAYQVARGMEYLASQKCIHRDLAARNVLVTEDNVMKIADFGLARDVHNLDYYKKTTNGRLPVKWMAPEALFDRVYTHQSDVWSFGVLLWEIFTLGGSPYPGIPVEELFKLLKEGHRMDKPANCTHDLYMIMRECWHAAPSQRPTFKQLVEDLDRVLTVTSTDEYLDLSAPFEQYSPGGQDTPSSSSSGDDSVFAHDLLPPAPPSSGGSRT
endpoint_name: IC50

stdin: Find the measured IC50: item CN(C(=O)C1CCCCC1)c1ccc2c(c1)nc(NC(=O)c1cccs1)n2CCCN , target or system Fibroblast growth factor receptor 3 (Homo sapiens, UniProt P22607).
stdout: > 6 µM

----------
# study_system: Tyrosine-protein kinase BTK (Homo sapiens, UniProt Q06187)
# Sequence (Q06187 whole entry): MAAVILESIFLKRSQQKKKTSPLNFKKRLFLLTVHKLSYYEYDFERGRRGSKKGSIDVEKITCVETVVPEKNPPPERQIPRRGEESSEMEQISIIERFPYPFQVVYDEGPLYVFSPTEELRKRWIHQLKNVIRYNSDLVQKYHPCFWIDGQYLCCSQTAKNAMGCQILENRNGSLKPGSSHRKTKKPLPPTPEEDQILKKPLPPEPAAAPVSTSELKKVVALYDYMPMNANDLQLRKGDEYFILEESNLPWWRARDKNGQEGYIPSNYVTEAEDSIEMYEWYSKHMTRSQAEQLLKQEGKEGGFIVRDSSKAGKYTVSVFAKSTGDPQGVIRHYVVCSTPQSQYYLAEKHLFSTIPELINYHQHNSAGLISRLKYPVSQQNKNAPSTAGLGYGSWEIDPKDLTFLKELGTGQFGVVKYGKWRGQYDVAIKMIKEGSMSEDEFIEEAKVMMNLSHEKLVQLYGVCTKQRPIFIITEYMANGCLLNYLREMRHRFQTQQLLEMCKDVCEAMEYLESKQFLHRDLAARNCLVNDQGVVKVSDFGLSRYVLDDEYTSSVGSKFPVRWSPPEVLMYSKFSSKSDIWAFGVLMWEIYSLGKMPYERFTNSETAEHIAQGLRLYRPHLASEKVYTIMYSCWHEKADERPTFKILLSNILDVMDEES
endpoint_name: IC50

stdin: GET /values?readout=IC50&item= CN(C(=O)C1CCCCC1)c1ccc2c(c1)nc(NC(=O)c1cccs1)n2CCCN
stdout: > 22 µM

----------
# study_system: Tyrosine-protein kinase ITK/TSK (Homo sapiens, UniProt Q08881)
# Sequence (Q08881 whole entry): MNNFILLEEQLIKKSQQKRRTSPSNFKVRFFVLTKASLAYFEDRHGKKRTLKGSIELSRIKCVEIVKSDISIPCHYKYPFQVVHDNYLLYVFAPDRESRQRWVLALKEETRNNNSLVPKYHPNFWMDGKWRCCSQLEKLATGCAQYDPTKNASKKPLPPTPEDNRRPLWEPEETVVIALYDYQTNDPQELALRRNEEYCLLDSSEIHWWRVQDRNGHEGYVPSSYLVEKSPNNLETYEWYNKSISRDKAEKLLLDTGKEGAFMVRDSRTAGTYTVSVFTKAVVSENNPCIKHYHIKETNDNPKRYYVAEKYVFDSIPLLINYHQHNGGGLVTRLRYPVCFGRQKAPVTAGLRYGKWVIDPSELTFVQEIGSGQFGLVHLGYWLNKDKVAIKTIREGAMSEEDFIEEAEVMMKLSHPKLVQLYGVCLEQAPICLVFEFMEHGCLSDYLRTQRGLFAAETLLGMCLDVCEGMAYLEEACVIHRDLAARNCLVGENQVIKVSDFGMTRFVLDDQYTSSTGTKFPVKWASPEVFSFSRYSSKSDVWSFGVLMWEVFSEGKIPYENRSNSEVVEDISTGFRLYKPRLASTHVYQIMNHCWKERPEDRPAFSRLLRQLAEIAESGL
# assay_comment: Inhibition of human ITK in presence of 3 uM ATP
endpoint_name: IC50 (nM)
Value expressed in nM; do not type the unit.

stdin: GET /values?readout=IC50&item= CN(C(=O)C1CCCCC1)c1ccc2c(c1)nc(NC(=O)c1cccs1)n2CCCN
stdout: 25

----------
Sequence of the target: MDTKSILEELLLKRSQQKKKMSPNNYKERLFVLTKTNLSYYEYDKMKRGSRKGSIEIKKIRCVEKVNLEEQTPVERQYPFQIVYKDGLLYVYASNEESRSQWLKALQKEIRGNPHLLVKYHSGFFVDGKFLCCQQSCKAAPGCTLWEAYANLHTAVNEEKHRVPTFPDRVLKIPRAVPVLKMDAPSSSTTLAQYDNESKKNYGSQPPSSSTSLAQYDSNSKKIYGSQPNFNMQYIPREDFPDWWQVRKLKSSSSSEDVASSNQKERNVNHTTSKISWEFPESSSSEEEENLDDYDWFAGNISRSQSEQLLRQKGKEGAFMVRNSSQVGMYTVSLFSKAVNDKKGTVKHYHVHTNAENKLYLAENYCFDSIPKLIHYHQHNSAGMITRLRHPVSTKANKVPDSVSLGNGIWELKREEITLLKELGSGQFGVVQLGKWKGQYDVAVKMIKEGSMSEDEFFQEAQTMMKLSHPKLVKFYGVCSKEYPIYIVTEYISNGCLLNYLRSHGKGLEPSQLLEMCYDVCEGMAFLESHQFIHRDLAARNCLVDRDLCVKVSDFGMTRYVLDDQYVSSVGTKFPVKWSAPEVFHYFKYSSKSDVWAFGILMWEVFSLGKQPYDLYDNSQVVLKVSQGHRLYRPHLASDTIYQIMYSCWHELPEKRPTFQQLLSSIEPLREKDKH
endpoint_name: IC50

stdin: GET /values?readout=IC50&item= CN(C(=O)C1CCCCC1)c1ccc2c(c1)nc(NC(=O)c1cccs1)n2CCCN
stdout: > 22 µM

----------
# study_system: Tyrosine-protein kinase ITK/TSK (Homo sapiens)
# assay_comment: Inhibition of human ITK by DELFIA assay
IC50 reference

Worked set:
NC(=O)CCn1c(NC(=O)c2ccccc2)nc2cc(C(=O)N(C3CCCCC3)C3CCCCC3)ccc21 | > 20 µM
NC(=O)CCn1c(NC(=O)c2ccsc2)nc2cc(C(=O)NC3CCCCC3)ccc21 | > 20 µM
CN(C(=O)C1CCCCC1)c1ccc2c(c1)nc(NC(=O)c1cccs1)n2CCCN | 0.025 µM
NCCCn1c(NC(=O)c2cccs2)nc2cc(C(=O)OC3CCCCC3)ccc21 | > 20 µM

Turning now to a further record.
stdin: GET /values?readout=IC50&item= NC(=O)CCn1c(NC(=O)c2ccccc2)nc2cc(C(=O)NC3CCCCC3)ccc21
stdout: > 20 µM

----------
# study_system: Hepatocyte growth factor receptor (Homo sapiens)
# Sequence (P08581 whole entry): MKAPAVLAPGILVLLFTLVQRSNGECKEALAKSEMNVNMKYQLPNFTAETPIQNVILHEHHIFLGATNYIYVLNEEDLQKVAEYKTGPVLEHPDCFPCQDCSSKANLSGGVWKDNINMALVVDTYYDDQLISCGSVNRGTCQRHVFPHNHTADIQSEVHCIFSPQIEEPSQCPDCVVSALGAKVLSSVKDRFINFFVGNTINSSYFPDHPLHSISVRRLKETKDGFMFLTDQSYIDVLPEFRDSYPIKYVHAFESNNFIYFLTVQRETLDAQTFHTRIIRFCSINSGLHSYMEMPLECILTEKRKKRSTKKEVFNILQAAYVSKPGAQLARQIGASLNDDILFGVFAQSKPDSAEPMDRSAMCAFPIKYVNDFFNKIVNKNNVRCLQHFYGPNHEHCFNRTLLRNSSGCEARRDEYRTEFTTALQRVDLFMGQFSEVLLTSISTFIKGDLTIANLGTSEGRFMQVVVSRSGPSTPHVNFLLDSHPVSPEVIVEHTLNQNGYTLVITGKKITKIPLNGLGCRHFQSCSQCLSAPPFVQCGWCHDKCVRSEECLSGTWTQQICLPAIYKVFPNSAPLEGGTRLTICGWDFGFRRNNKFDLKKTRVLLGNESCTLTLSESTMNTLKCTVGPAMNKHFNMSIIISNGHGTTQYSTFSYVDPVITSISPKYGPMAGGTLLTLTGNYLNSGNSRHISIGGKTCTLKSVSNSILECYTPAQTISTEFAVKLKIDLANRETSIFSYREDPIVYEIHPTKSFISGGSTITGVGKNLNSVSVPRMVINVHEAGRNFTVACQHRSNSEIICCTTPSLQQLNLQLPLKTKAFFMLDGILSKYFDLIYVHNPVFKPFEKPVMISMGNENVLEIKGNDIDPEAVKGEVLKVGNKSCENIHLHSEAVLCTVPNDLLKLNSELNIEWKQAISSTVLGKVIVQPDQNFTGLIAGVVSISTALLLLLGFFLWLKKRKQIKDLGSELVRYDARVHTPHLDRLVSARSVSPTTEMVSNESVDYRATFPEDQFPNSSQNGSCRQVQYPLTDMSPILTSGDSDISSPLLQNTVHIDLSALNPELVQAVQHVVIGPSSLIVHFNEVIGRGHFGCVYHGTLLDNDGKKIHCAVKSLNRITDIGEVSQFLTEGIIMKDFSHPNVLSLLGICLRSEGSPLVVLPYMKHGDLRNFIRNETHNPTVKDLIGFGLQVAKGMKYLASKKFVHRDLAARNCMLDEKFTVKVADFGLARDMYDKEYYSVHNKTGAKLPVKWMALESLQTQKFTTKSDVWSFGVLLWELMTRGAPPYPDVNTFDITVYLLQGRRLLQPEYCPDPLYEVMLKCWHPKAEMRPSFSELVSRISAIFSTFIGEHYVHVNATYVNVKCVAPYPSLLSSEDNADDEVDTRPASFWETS
endpoint_name: IC50

stdin: GET /values?readout=IC50&item= CN(C(=O)C1CCCCC1)c1ccc2c(c1)nc(NC(=O)c1cccs1)n2CCCN
stdout: > 10 µM
